Cited source: patent US6858210B1

# key: entry, value: Maximum O.D.
tested on: affinity purified β2GPI-dependent antiphospholipid antibody; experiment: Direct binding ELISA, nickel chelate-coated wells charged with recombinant β2GPI proteins (no cardiolipin); design: species or system human; conditions: Ab 6652; O.D. at 550 nm
Test readout: Maximum O.D.

Molecule: -2345: recombinant β2GPI deletion mutant with domains 2-5 (protein) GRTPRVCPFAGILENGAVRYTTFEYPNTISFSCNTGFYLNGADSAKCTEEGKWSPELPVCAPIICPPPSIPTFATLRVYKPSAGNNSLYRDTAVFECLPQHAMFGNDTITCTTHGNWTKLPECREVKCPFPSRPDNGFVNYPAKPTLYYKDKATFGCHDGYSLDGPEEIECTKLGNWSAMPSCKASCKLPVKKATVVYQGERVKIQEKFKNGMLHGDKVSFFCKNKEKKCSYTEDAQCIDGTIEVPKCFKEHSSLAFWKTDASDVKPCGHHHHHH
Test value: 0.008

Molecule: recombinant β2GPI domain 5 with GlyHis6 (----5) (protein) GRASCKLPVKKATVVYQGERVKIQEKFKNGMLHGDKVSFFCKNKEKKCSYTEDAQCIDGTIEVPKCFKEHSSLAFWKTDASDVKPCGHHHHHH
Test value: 0.012

Molecule: 1234-: recombinant β2GPI deletion mutant with domains 1, 2, 3, 4 (protein) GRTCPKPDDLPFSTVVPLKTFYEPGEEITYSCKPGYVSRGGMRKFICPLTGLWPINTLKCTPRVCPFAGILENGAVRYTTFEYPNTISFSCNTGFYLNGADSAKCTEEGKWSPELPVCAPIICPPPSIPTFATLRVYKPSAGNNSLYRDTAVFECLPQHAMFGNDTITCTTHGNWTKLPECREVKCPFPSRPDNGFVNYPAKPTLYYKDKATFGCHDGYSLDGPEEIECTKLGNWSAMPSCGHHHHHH
Test value: 0.135
